Values compiled from PubChem BioAssay.

biological target: Voltage-gated potassium channel subunit beta-2 (Rattus norvegicus) (UniProt P62483); assay: enhancers of rat Kvbeta2 NADPH turnover – biochemical, NADPH fluorescence, primary screen (AID 623); conditions: Recombinant KvBeta, NADPH fluorescence decrease slope, 10 min; at 10 µM; active compounds read low;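 further: fluorescence intensity change per second fitted from 20 to 320 s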
Sequence (P62483 whole entry, looked up): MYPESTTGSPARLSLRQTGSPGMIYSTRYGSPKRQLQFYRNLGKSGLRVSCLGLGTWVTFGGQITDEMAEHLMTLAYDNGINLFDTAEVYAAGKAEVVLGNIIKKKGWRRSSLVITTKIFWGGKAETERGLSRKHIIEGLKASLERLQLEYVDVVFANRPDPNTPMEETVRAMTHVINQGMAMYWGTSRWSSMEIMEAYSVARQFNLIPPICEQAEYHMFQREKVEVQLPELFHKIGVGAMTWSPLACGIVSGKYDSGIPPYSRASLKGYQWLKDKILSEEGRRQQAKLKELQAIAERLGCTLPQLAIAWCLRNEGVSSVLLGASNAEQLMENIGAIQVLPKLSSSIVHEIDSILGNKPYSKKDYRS
The source made the active and inactive calls.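 How the source made its calls: active means NADPH fluorescence slope more negative than the mean of all samples by about 3 SD, 99.7% confidence; inactive means the rest.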
Measurement type: NADPH fluorescence slope

INSERT INTO assay_data (compound, readout_value) VALUES
  ('CCCCOC(=O)Nc1nc2ccc(OC)cc2s1', '-5.1e-05 (inactive)'),
  ('CCCN(CCC)CCNC(=O)C(NS(=O)(=O)c1ccc2c(c1)CCC(=O)N2)c1ccccc1 (stereo not drawn)', '-5e-05 (inactive)');

# ---- query compound ----
Prompt line: Find the measured NADPH fluorescence slope of CC(C(=O)N1CCCCC1)n1ncn2cccc2c1=O (stereo not drawn) and report it.
Response line: -2.8e-05 (inactive)

###

assay: loss of swimming-algae plug formation – whole organism, Chlamydomonas reinhardtii, WT vs cilia-less mutant, absorbance, 96-well, primary screen (AID 463189); conditions: Chlamydomonas reinhardtii gravitaxis, OD600 absorbance, 2 days; at 10 µM;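 further: 0% = wild type cc124 cells in DMSO and 100% = ciliumless bld1 mutant cells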
Active and inactive are the calls of the source.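 How the source made its calls: active means inhibition at or above 50% relative to wild type and mutant plate controls; inactive means inhibition below 50%.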
Outcome (select one): active, inactive

INSERT INTO results (molecule, group) VALUES
  ('NC(C(=O)N[C@@H]1C(=O)N2C(C(=O)O)=C(Cl)CS[C@H]12)c1ccccc1 (stereo partly specified)', 'inactive'),
  ('Cc1nc2sc(C)c(C)c2c(=O)o1', 'inactive'),
  ('CCOC(=O)c1cc2c(=O)n3cccc(C)c3nc2n(CCc2ccccc2)c1=N', 'active'),
  ('CCCOC(=O)c1c(-c2ccccc2)nc(CC)c(C(=O)SCC)c1CCC', 'inactive'),
  ('CC(C)c1nc2sc3c(c2c(=O)o1)CCCC3', 'inactive'),
  ('CCCCC/C=C\CC(O)/C=C/c1cccc(CC(O)CCCCO)n1 (stereo unspecified)', 'inactive'),
  ('C=Cc1c(C)c2cc3[nH]c(cc4nc(cc5nc(cc1[nH]2)C(C)=C5CCC(=O)O)C(CCC(=O)O)=C4C)c(C)c3C=C', 'inactive'),
  ('O=c1cc(-c2ccc(O)cc2)oc2cc(O)cc(O)c12', 'inactive');

Prompt line: For CCOC(=O)c1ccc(NCC(O)COc2ccccc2)cc1 (stereo unspecified) , what call appears in the results of this test?
Response line: inactive

Prompt line: Query: recorded result category for CCCCCCC/C=C\CCCCCCCCC(=O)O in this test
Response line: inactive

Prompt line: Dear all, I need the recorded test outcome for Cn1ccnc1 , thank you.
Response line: inactive

Prompt line: Recorded call for O=C(O)[C@@H]1C[C@H](C(=O)O)N1 ?
Response line: inactive

Prompt line: What outcome does the record of this test show for COc1ccc(OC)c(N=C(C)C2=C(O)COC2=O)c1 ?
Response line: inactive

Prompt line: Dear all, I need the recorded test outcome for O=C(O)[C@H]1NCCC[C@H]1C(=O)O , thank you.
Response line: inactive

Prompt line: Per the records of this test, what outcome belongs to CN(C)S(=O)(=O)c1ccc2c(c1)/C(=C/c1cc3c([nH]1)CCCC3)C(=O)N2 ?
Response line: inactive

Prompt line: Which outcome did this test record for the molecule O=C(O)c1cc(=O)c2ccc(Cl)cc2[nH]1 ?
Response line: inactive

###

experiment: endothelial E-selectin expression blockers – imaging, HUVEC, immunofluorescence, MLSMR starter and 10KST1 sets, primary screen (AID 487); conditions: HUVEC TNFalpha-induced E-selectin immunofluorescence imaging, at 2 µM; active compounds read high;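 further: signal is fraction of cell area covered by stained E-selectin grains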
Measurement type: inhibition (%)
Unit % implied. Number only.

Look over these answered cases.
INSERT INTO measurements (compound, output_unit, readout_value) VALUES
  ('COc1nc(OC)nc(N2CCC(C(=O)NC3CCCCCC3)CC2)n1', '%', -6),
  ('C=CCN1C(=O)/C(=C2/Sc3ccccc3N2C)SC1=Nc1c(C)n[nH]c1C', '%', -70.1),
  ('CCOC(=O)N1CCN(c2cc(=O)n(-c3ccc(OCC)cc3)c(=O)[nH]2)CC1', '%', -26.9),
  ('O=C(NCc1ccccc1)N1CCn2c(nc3ccccc32)C1', '%', -13.3);

Prompt line: Tell me its inhibition given CCCc1n[nH]c2c1/C(=N/O)CC(c1ccccc1)C2 (stereo not given) as the entry.
Response line: -7.4
